test system: CP305; assay: qHTS profiling for inhibitors of Plasmodium falciparum proliferation (AID 504749); note: nearly all actives have a fitted effect of over 60% in size; settings: P. falciparum in erythrocytes, SYBR Green DNA, 72 h; series mostly up to 28.7 µM
Results filed as inconclusive are left out. The source made the active and inactive calls. Calls come from the whole dose curve; as a rule, active = well fitted inhibition curve with a large enough effect; inconclusive = small, poorly fitted or top-dose-only effect; inactive = flat fitted curve, though single readings scatter. Bridge positions count the residues as written; N and C are the ends. Square brackets hold non-standard residues; d marks the D form. Peptide text beside a SMILES is read from it. * marks the point of attachment. Octanoyl(6-Me) = CCC(C)CCCCC(=O)*; Dab = NCC[CH](N)C(=O)O
Use one of these outcomes when replying: 1 for active, -1 for inactive

query: Dear all, I need the recorded test outcome for CCC(C)CCCCC(=O)NC(CCN)C(=O)NC(C(=O)NC(CCN)C(=O)NC1CCNC(=O)C(C(C)O)NC(=O)C(CCN)NC(=O)C(CCN)NC(=O)C(CC(C)C)NC(=O)C(Cc2ccccc2)NC(=O)C(CCN)NC1=O)C(C)O (configuration not stated) ({Octanoyl(6-Me)}-[Dab]T[Dab][Dab][Dab]FL[Dab][Dab]T; lactam 4-C; configuration not given here) , thank you.
result: -1

query: Dear all, I need the recorded test outcome for CC1CCC(C(C)C)C(OC(=O)c2ccccc2O)C1 (configuration not stated) , thank you.
result: -1

query: Dear all, I need the recorded test outcome for C/C=C\c1ccc(OC)cc1 , thank you.
result: -1

query: Dear all, I need the recorded test outcome for CN1CC[C@H](CN2c3ccccc3Sc3ccccc32)C1 , thank you.
result: 1

query: Dear all, I need the recorded test outcome for CC(=O)O[C@@]12CO[C@@H]1C[C@H](O)[C@@]1(C)C(=O)[C@H](O)C3=C(C)[C@@H](OC(=O)C(O)[C@@H](NC(=O)OC(C)(C)C)c4ccccc4)C[C@@](O)([C@@H](OC(=O)c4ccccc4)[C@H]21)C3(C)C (some centres not stated) , thank you.
result: 1

query: Dear all, I need the recorded test outcome for CC1(C)S[C@@H]2[C@H](NC(=O)COc3ccccc3)C(=O)N2[C@H]1C(=O)O , thank you.
result: -1

query: Dear all, I need the recorded test outcome for O=NCc1ccc([N+](=O)[O-])o1 , thank you.
result: -1

###

target: Rap guanine nucleotide exchange factor 3 (Homo sapiens) (UniProt O95398); assay: Confirmatory qHTS for agonist of cAMP-regulated guanine nucleotide exchange factor 3 (EPAC1) (AID 1645881); settings: EPAC1 Rap1B BODIPY-GDP exchange fluorescence; series mostly up to 154 µM; note: nearly all actives have a fitted effect of over 75% in size; note: potency is the fitted concentration of half-maximal effect;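 for activation: EPAC1 catalysed release of BODIPY-GDP from Rap1B seen as fluorescence loss; 100% = effect of cAMP agonist control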
Sequence (O95398 whole entry, looked up): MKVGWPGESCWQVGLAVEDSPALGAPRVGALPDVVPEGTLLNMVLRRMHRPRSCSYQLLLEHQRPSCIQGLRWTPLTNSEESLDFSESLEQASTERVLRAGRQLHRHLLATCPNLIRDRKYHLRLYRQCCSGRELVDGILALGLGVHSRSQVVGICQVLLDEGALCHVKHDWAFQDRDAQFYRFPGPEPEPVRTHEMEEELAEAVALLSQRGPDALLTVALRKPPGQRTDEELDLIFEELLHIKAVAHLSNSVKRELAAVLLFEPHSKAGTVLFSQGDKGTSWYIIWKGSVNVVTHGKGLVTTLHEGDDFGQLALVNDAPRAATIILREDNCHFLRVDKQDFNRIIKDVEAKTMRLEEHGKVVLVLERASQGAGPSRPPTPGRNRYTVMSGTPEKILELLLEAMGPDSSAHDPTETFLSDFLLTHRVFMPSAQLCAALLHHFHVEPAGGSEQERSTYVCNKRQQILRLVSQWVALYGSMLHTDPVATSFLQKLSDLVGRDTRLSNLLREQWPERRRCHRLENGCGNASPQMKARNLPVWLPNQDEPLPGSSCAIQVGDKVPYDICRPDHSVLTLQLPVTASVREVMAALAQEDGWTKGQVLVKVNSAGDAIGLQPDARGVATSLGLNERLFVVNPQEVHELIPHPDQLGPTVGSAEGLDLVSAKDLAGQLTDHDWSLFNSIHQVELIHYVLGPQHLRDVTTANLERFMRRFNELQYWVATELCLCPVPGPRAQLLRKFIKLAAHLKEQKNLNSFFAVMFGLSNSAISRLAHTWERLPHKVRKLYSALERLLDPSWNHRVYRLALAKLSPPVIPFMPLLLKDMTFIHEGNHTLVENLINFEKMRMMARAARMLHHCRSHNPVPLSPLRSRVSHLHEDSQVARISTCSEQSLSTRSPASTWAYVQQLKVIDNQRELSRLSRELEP
Results filed as inconclusive are left out. Calls of active or inactive are those of the source. The call rests on the fitted dose curve; in most records, active means well fitted activation curve with a large enough effect; inconclusive means small, poorly fitted or top-dose-only effect; inactive means no such curve, though single readings can be large or run the other way.
Property measured: Potency

Consider the worked cases shown below.
[
  {
    "Compound": "O=C(CSc1nccn1C1CCCC1)Nc1cc(C(F)(F)F)ccc1Cl",
    "Meas value": "inactive"
  },
  {
    "Compound": "C=CCn1c(SCC(=O)NC(N)=O)nnc1-c1cc2c(s1)CCC(CC)C2 (stereo not given)",
    "Meas value": "inactive"
  },
  {
    "Compound": "Cc1[nH]n(-c2ccccc2)c(=O)c1C(c1ccc(C(=O)O)cc1)c1c(C)[nH]n(-c2ccccc2)c1=O",
    "Meas value": "inactive"
  },
  {
    "Compound": "O=C(NN1C(=O)/C(=C/c2ccc(O)c([N+](=O)[O-])c2)SC1=S)c1ccccc1Cl",
    "Meas value": "inactive"
  },
  {
    "Compound": "CCc1nnc(NS(=O)(=O)c2ccc(NC(=O)C(c3ccccc3)c3ccccc3)cc2)s1",
    "Meas value": "inactive"
  },
  {
    "Compound": "COC(=O)c1c(NC(=O)c2ccc(S(=O)(=O)N3CCCCC3C)cc2)sc2c1CCN(C(C)C)C2 (stereo not given)",
    "Meas value": "112 µM (active)"
  },
  {
    "Compound": "Cc1ccc2nc(-c3cccc(Br)c3)c(Cc3ccccn3)n2c1",
    "Meas value": "inactive"
  },
  {
    "Compound": "CCCc1nc2ccc(C(=O)OC)cn2c1Cc1ccc(C)cc1",
    "Meas value": "inactive"
  },
  {
    "Compound": "CCn1c2c(c3cc(Cl)ccc31)CCCC2=O",
    "Meas value": "inactive"
  }
]

query: Which Potency is listed for Cc1cccc2sc(N(Cc3cccnc3)C(=O)c3cccs3)nc12 ?
result: inactive
